Biological target: Cytochrome P450 2C9 (Homo sapiens)
Sequence (P11712 whole entry): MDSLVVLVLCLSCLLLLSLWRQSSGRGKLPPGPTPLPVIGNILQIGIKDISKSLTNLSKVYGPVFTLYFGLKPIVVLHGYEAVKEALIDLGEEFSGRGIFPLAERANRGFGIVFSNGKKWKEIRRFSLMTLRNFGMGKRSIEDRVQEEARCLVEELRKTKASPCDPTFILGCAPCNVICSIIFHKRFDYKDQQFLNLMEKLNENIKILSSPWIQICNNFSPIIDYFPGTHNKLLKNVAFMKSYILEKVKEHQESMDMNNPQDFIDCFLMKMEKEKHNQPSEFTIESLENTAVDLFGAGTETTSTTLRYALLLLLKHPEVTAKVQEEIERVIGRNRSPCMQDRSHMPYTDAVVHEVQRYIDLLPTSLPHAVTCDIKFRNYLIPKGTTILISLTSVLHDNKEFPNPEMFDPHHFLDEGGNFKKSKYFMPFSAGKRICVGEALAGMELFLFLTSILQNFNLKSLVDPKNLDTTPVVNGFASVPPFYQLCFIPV
Experiment: Inhibition of CYP2C9
Type: ADME
attribute-measured: pIC50
By convention, pIC50 is the negative base-10 log of a molar concentration.

Query pIC50 for `O=C(O)COc1c(C(=O)O)sc(-c2cccc(NC3CCN(S(=O)(=O)Cc4ccccc4)CC3)c2)c1Br` 4.40

###

Assay: Drug level in C57/B6 mouse muscle at 10 mg/kg, ip after 7 hrs
Format: ADME, organism-based, Muscle tissue
Parameters: dose 10 mg/kg, route intraperitoneal
Conditions: read-out: Drug uptake
attribute-measured: concentration at 7 h (nM)
Write the number in nM without appending the unit.

Query concentration at 7 h for `O=C(O)COc1c(C(=O)O)sc(-c2cccc(NC3CCN(S(=O)(=O)Cc4ccccc4)CC3)c2)c1Br` 260

###

Assay: Stability in rat liver microsomes
Format: ADME, Microsome
attribute-measured: half-life (min)
Write the number in min without appending the unit.

Query half-life for `O=C(O)COc1c(C(=O)O)sc(-c2cccc(NC3CCN(S(=O)(=O)Cc4ccccc4)CC3)c2)c1Br` 46

###

Target chain: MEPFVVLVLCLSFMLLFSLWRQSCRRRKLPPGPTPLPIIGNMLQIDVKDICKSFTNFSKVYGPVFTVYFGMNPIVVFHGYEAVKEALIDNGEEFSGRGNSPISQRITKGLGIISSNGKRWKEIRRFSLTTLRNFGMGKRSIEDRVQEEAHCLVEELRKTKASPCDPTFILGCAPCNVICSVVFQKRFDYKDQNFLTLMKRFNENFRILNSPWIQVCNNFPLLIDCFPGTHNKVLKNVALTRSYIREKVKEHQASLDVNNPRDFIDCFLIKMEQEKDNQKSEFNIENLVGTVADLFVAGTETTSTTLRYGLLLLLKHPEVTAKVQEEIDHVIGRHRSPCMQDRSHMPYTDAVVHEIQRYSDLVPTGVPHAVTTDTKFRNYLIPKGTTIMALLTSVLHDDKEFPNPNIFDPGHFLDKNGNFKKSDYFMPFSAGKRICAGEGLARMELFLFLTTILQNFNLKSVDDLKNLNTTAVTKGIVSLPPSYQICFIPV
pIC50: −log10 of the molar value.
attribute-measured: pIC50

Query pIC50 for `O=C(O)COc1c(C(=O)O)sc(-c2cccc(NC3CCN(S(=O)(=O)Cc4ccccc4)CC3)c2)c1Br` < 3.30

###

Measured pKi of individual entries
Target: Tyrosine-protein phosphatase non-receptor type 1 (Homo sapiens)
Sequence (P18031 whole entry): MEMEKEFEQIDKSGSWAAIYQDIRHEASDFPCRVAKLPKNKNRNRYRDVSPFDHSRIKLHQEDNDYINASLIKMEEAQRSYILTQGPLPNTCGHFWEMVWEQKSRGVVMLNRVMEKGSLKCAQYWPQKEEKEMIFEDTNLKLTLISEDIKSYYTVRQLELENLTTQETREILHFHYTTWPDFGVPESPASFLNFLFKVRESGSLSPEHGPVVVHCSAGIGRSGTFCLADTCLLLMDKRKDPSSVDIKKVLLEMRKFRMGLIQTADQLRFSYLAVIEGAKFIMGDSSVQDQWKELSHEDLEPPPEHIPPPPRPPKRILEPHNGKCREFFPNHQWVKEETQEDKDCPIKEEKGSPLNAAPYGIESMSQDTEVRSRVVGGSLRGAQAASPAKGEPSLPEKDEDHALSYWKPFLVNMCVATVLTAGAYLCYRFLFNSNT
Experiment: Inhibition of human recombinant PTP1B
By convention, pKi is the negative base-10 log of a molar concentration.

Here is how some compounds turned out for pKi.
{"columns": ["cpd-smiles", "pKi"],
 "data": [
  ["Nc1cccc(-c2sc(C(=O)O)c(OCC(=O)O)c2Br)c1", 5.77],
  ["O=C(O)COc1c(C(=O)O)sc(-c2cccc(NS(=O)(=O)c3ccc(F)cc3)c2)c1Br", 6.36],
  ["COc1ccccc1NC(=O)N1CCC(CNc2cccc(-c3sc(C(=O)O)c(OCC(=O)O)c3Br)c2)CC1", 8.52],
  ["CS(=O)(=O)Nc1ccccc1CS(=O)(=O)N1CCC(Nc2cccc(-c3sc(C(=O)O)c(OCC(=O)O)c3Br)c2)CC1", 9.00],
  ["Cc1ccccc1CS(=O)(=O)N1CCC(Nc2cccc(-c3sc(C(=O)O)c(OCC(=O)O)c3Br)c2)CC1", 8.40],
  ["O=C(O)COc1c(C(=O)O)sc(-c2cccc(NC3CCN(S(=O)(=O)Cc4cccc(Cl)c4)CC3)c2)c1Br", 8.00],
  ["CC(=O)N1CCC(Nc2cccc(-c3sc(C(=O)O)c(OCC(=O)O)c3Br)c2)CC1", 6.72],
  ["O=C(O)COc1c(C(=O)O)sc(-c2cccc(NC3CCN(S(=O)(=O)c4ccccc4)CC3)c2)c1Br", 7.26],
  ["O=C(O)COc1c(C(=O)O)sc(-c2cccc(OCC3CCN(C(=O)Nc4ccccc4)CC3)c2)c1Br", 7.89],
  ["Cc1c(-c2cccc(NC3CCN(S(=O)(=O)Cc4ccccc4)CC3)c2)sc(C(=O)O)c1OCC(=O)O", 8.10]
]}

Query pKi for `O=C(O)COc1c(C(=O)O)sc(-c2cccc(NC(=O)c3ccccc3)c2)c1Br` 5.68

Query pKi for `COC(=O)N1CCC(Nc2cccc(-c3sc(C(=O)O)c(OCC(=O)O)c3Br)c2)CC1` 6.41

// data source = ChEMBL document CHEMBL1148776
